Biological target: CYP3A4 (Homo sapiens (Human), UniProt P08684)
Sequence (P08684 whole entry): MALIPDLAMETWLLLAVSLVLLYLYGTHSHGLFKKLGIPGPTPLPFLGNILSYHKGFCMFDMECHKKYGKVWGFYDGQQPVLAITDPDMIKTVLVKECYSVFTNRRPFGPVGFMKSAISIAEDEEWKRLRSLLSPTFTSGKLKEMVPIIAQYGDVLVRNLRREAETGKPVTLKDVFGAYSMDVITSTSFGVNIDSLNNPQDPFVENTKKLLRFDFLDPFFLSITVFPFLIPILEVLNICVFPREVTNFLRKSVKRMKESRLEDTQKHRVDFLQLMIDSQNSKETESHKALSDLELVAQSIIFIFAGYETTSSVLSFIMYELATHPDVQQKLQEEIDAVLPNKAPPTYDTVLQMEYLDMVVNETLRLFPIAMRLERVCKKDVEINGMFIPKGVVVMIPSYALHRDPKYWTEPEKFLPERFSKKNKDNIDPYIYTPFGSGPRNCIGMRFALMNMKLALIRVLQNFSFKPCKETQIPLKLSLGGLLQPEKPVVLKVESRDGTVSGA
Experiment: Inhibitory effect on CYP enzymatic activity in human liver microsomes
Type: in vitro ADME
Conditions: read-out: Inhibition on CYP3A4 IC50; human liver microsomes, substrate midazolam
pIC50: −log10 of the molar value.
measured parameter: pIC50

Bench note: what pIC50 did CC[C@@]1(O)C(=O)OCc2c1cc1n(c2=O)Cc2c-1nc1cc3c(cc1c2CNC(=O)C(O)C1CC1)OCO3 (single isomer, unassigned) [Compound 14-P2] show?
< 4.30

====

Tested on: human ovarian cancer cell line OVCAR3
Assay: Test 1 of anti-proliferative activity against tumor cells (Cell-Titer Glo)
Assay type: cell-based
Settings: Homo sapiens, OVCAR-3, 120 h, read-out: OVCAR3 Anti-proliferative activity IC50 (nM)
measured parameter: log10 IC50 (log10 of the value in nM)
Short version: log10 scale, IC50, nM.

Worked examples follow.
compound: CC[C@@]1(O)C(=O)OCc2c1cc1n(c2=O)Cc2c-1nc1cc3c(c(F)c1c2CNC(=O)CN)OCO3
measured parameter: log10 IC50
experimental result: 1.05
//
compound: CC[C@@]1(O)C(=O)OCc2c1cc1n(c2=O)Cc2c-1nc1cc(F)c(Cl)c(F)c1c2CNC(=O)[C@@H](C)O
measured parameter: log10 IC50
experimental result: 0.30
//
compound: CC[C@@]1(O)C(=O)OCc2c1cc1n(c2=O)Cc2c-1nc1cc3c(cc1c2CNC(=O)C(O)C1CC1)OCO3 (stereo partly shown)
measured parameter: log10 IC50
experimental result: -0.05
//
compound: CC[C@@]1(O)C(=O)OCc2c1cc1n(c2=O)Cc2c-1nc1cc(F)c(Cl)c(F)c1c2CNC(=O)C(C)(C)O
measured parameter: log10 IC50
experimental result: 0.15
//
compound: CC[C@@]1(O)C(=O)OCc2c1cc1n(c2=O)Cc2c-1nc1cc3c(c(F)c1c2CNC(=O)C(O)C1CC1)OCO3 (stereo partly shown)
measured parameter: log10 IC50
experimental result: 0.08

Bench note: what log10 IC50 did CC[C@@]1(O)C(=O)OCc2c1cc1n(c2=O)Cc2c-1nc1cc(Cl)c3c(c1c2CNC(=O)C(O)C1CC1)CCC3 (stereo partly shown) show?
-0.22

Bench note: what log10 IC50 did `CC[C@@]1(O)C(=O)OCc2c1cc1n(c2=O)Cc2c-1nc1cc(Cl)c3c(c1c2CNC(=O)CO)CCC3` show?
-0.10

====

Experiment: Metabolic stability in liver microsomes
Type: in vitro ADME, mouse
Conditions: CD-1, mouse, microsomes, pH 7.4
measured parameter: half-life at 1 μM (h)
Give the value, in units of h, as a plain number.

Bench note: what half-life at 1 μM did CC[C@@]1(O)C(=O)OCc2c1cc1n(c2=O)Cc2c-1nc1cc3c(c(F)c1c2CNC(=O)[C@@H](O)C1CC1)OCO3 (single isomer, unassigned) [Compound 37-P1] show?
2.23

====

IC50: recorded values
System: Human ovarian cancer cell line SK-OV-3
Experiment: Test 2 of anti-proliferative activity against tumor cells (Cell-Titer Glo)
Format: cell-based
Settings: Homo sapiens, SK-OV-3, 120 h, read-out: SK-OV-3 Anti-proliferative activity IC50 (nM)
Give the value, in units of nM, as a plain number.

Worked examples follow.
molecule: [2H]C1([2H])Oc2cc3nc4c(c(CNC(=O)C(O)C5CC5)c3cc2O1)Cn1c-4cc2c(c1=O)COC(=O)[C@]2(O)CC (stereo partly shown)
output unit: nM
experimental result: 2.6
--
molecule: CC[C@@]1(O)C(=O)OCc2c1cc1n(c2=O)Cc2c-1nc1cc3c(c(Cl)c1c2CNC(=O)CO)OCO3
output unit: nM
experimental result: 12.3
--
molecule: CC[C@@]1(O)C(=O)OCc2c1cc1n(c2=O)Cc2c-1nc1cc3c(c(F)c1c2CNC(=O)C(O)C1CC1)OCO3 (stereo partly shown)
output unit: nM
experimental result: 3.5

Now examine the next entry.
Bench note: what IC50 did CC[C@@]1(O)C(=O)OCc2c1cc1n(c2=O)Cc2c-1nc1cc3c(cc1c2CNC(=O)C(O)C1CC1)OCO3 (stereo partly shown) show?
3
